These entries and their values trace back to patent US20170306031A1.

studySystem: T1, human GFRAL (analyte in Biacore assays) (human, UniProt Q6UXV0 19-351, limits assumed)
T1 construct: injected in solution over captured antibody; also called hGFRAL
T1 sequence: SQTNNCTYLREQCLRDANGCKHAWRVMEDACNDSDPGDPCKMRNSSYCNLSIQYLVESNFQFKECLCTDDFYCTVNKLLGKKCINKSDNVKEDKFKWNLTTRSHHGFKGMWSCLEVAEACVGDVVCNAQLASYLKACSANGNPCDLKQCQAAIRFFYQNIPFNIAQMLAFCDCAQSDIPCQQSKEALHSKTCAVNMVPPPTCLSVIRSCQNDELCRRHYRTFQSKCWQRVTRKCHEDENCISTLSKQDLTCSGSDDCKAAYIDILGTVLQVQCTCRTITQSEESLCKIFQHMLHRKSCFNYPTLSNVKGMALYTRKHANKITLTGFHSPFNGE
testMethodNotes: Biacore SPR, antibody captured, human GFRAL injected
Experimental: Exemplary humanized anti-GFRAL antibodies identified in Example 6 were assayed for their binding affinity to human GFRAL. Binding affinity measurements were made in Biacore based assays. For example, equilibrium dissociation constant (KD) measurements were carried out with purified antibodies to evaluate their binding to human GFRAL. […] This was followed by injection of human GFRAL in PBS-P buffer) at a flow rate of 70 μL/min and the binding kinetics were evaluated at 25° C.
# Lookup of reported pKd keyed by entry
Expect pKd as a plain number equal to -log10 of the molar concentration.

humanized anti-GFRAL antibody HC-375e/LC-375g (antibody, IgG1, V domains shown, humanized 5F12) VH: QVQLVQSGAEVKKPGSSVKVSCKASGYTFTDYYINWVRQAPGQGLEWMGRIYPGNGNTYHNEKFKGRATLTADESTSTAYMELSSLRSEDTAVYYCAREGLYYDYDRYFDYWGQGTLVTVSS VL: DIVLTQSPDSLAVSLGERATINCRASESVDTYGNSFMHWYQQKPGQPPKLLIYLASNLESGVPDRFSGSGSRTDFTLTISSLQAEDVAVYYCHQNNEDPPAFGGGTKVEIK
10.09

Please look at the following binder next.
The recorded pKd for entry humanized anti-GFRAL antibody HC-375g/LC-375a (antibody, IgG1, V domains shown, humanized 5F12) VH: QVQLVQSGAEVKKPGSSVKVSCKASGYTFTDYYINWVRQAPGQGLEWIARIYPGNGNTYHNEKFKGRATLTADKSTSTAYMELSSLRSEDTAVYYCAREGLYYDYDRYFDYWGQGTLVTVSS VL: DIVMTQSPDSLAVSLGERATINCRASESVDTYGNSFMHWYQQKPGQPPKLLIYLASNLESGVPDRFSGSGSGTDFTLTISSLQAEDVAVYYCHQNNEDPPAFGGGTKVEIK equals 10.55
